The reported measurements were obtained from the METLIN SMRT retention time set (Domingo-Almenara et al. 2019).

- Run Description: gradient 5% acetonitrile 3 min, to 50% in 2 min, to 85% in 15 min, held 3 min, 100 µL/min
- Test Settings: column: Zorbax Extend-C18 2.1 x 50 mm; eluents: water / acetonitrile, 0.1% formic acid
This listing pairs compounds with measured RP-LC retention time.
Numbers only here, please. The scale is s.

Compound	Endpoint Unit	RP-LC retention time
O=C1NC2(CCN(C(=O)Cc3cccc(F)c3)CC2)Nc2c(Cl)cccc21	s	785
O=C(c1cccc(Cl)c1)N1CCN(C(=O)c2nnn3c2COC(c2ccc(F)cc2)C3)CC1 (centres undefined)	s	913
COc1ccc(-c2nc3cccnc3n2C2CCN(C(=O)c3ccc4c(c3)OCO4)C2)cc1 (centres undefined)	s	716
CC(C)c1nnc2n1CCN(C(=O)COc1cccc(Cl)c1)C2	s	667
Cc1ccc(NC(=O)Cn2cnc3nc(N4CCC(C(=O)NC5CC5)CC4)sc3c2=O)cc1F	s	703
CCc1ccccc1NC(=O)N1CCN(c2cc(C)nc(N3CCOCC3)n2)CC1	s	695

RP-LC retention time measured on `O=C(NCc1ccccc1Cl)c1csc(C(=O)NC2CCCC2)n1` = 931

The reported value for `CC(C)c1cc(C(=O)Nc2ccc(F)c(F)c2)nc2ccnn12` in terms of RP-LC retention time is 1180

Reported RP-LC retention time for `CN1CCn2ccnc2C12CCN(C(=O)Nc1ccccc1Cl)CC2` was 576

The reported value for `CSc1ccc(CNC(=O)CCc2nnc3c4cc(-c5ccccc5)nn4ccn23)cc1` in terms of RP-LC retention time is 780

RP-LC retention time for O=C(NCc1ccccc1Cl)C1CCCN(S(=O)(=O)c2c[nH]c(C(=O)N3CCCC3)c2)C1 (centres undefined) is 790
